// provenance: patent US5254589A

Catalogue of pIC50 values
Study Target: acyl-CoA:cholesterol acyltransferase (ACAT) (Oryctolagus cuniculus, UniProt G1SFD9)
Sequence (G1SFD9 1-524): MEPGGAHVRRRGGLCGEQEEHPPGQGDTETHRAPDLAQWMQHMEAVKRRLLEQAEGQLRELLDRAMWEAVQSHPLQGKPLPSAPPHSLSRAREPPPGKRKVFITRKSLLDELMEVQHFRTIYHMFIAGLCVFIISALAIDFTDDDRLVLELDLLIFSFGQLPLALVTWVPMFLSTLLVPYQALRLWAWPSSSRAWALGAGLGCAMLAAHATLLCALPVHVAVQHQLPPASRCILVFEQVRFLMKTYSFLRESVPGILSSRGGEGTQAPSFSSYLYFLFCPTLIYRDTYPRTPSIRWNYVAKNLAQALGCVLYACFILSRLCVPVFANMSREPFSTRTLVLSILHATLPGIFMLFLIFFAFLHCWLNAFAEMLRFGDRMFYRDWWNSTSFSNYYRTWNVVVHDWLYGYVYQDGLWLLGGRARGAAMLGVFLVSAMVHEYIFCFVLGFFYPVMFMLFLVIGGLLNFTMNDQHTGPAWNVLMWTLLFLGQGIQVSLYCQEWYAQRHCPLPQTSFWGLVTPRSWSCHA
pIC50: −log10 of the molar value.

[
  {
    "Chemical Smiles": "CCCCCCCCCCS(=O)(=O)NC(=O)Nc1c(C(C)C)cccc1C(C)C",
    "pIC50": 4.89
  },
  {
    "Chemical Smiles": "CCCCCCCCCCCCCCCCS(=O)(=O)NC(=O)Nc1c(C(C)C)cccc1C(C)C",
    "pIC50": 5.90
  }
]
